Each entry below carries its recorded protein stability index.
test name: protein stability index of a GFP-peptide fusion (GPS, HEK-293T) (PSI 1-6); higher = more stable;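 also: 24-mer peptide tiles fused after GFP, lentivirally expressed, FACS-sorted into six equal bins by GFP/DsRed ratio, decoded by Illumina sequencing, PSI is the read-weighted mean bin number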
experimental context: treatment: DMSO; c terminus: a fixed tail appended

Completed entries (count: 6):
{"residue string": "FGRGSRTVDLELELQIELLRETKR [ARFIP2]", "value observed": 2.26}
{"residue string": "ACRFTKCLRVGMLKEGVRLDRVRG [ESRRA]", "value observed": 2.31}
{"residue string": "LDPDTMHARLRLSADRLTVRCGLL [TRIM14]", "value observed": 2.51}
{"residue string": "VRILLEHYYKENDPSVRLKIASLL [INTS4]", "value observed": 2.09}
{"residue string": "VLCEAAFPKKLAFAYLEDLHSEFD [SEC22B]", "value observed": 2.14}
{"residue string": "VAVDYCASENHGCEHECVNADGSY [MATN2]", "value observed": 5.08}

[Q] Form field: reported protein stability index of FRALAPMYYRGSAAAIIVYDITKE [RAB22A]
[A] 2.27

[Q] Now give it for SLCTHLIYAFAGMTNHQLSTTEWN [CHIT1] too.
[A] 3.43

[Q] Quick one: IVTLRHVLAAKERRCGELKRKLGL [TPD52L3]
[A] 2.2

[Q] Follow-up entry: FTETNNHWPQGPTGPPGPPGPMGP [EMID1]
[A] 2.58

[Q] What do you get for WDKEPWFWHDTLTEQLWRIFAGVH [TLE6] ?
[A] 2.61

[Q] Follow-up entry: VKQKISPYFKSNDVVCKNQDELRN [FAN1]
[A] 3.84

[Q] And then VLFNEKIREQIKKYRRHFLRFCHN [EIF5] , what is it?
[A] 2.82

----------
Form field: protein stability index (one value per entry).
test name: protein stability index of a GFP-peptide fusion (GPS, HEK-293T) (PSI 1-6); higher = more stable
experimental context: treatment: DMSO; c terminus: a fixed tail appended
// keep it numeric: no unit symbol after the value

Example results:
{"residue string": "AARAAGRDVAAEAVARSPKRPAWG [POMT2]", "protein stability index": 4.1}
{"residue string": "SIRDANLYVSGLPKTMSQKEMEQL [ELAVL3]", "protein stability index": 4.4}
{"residue string": "VNNYTNSFGGEWSAPDTMKRYSMY [TRIM29]", "protein stability index": 2.32}
{"residue string": "ADLSQKSPELQEEFGYNAETQKLL [ARFIP2]", "protein stability index": 4.95}
{"residue string": "AMAMGTPSTTERISTSGQAGTSSH [PXN]", "protein stability index": 4.86}
{"residue string": "LWHLAITDRSFNIVDIKPANMEDL [PPP2R2C]", "protein stability index": 2.36}
{"residue string": "SGVSDYDYLDLDKMSLYSEADSGY [TRIM9]", "protein stability index": 4.14}
{"residue string": "ANTMEHLSLLDNNIPGNSTLITAV [FBXO33]", "protein stability index": 3.16}
{"residue string": "MDTSHQPLLPAPPKTPMDGADCGI [LYSMD4]", "protein stability index": 5.04}
{"residue string": "VIVMTTRFEEGGRRKCGQYWPLEK [PTPN9]", "protein stability index": 2.12}

[Q] I would be grateful if you could share the reported protein stability index for EEVDTGAVNLIESGACGAFVHGLE [INTS4] .
[A] 4.34

[Q] How about RLLLAESGLSFITFICYVASSASA [CMTM3] ?
[A] 2.53

[Q] # repeat for HNCAHFCINIPGSYVCRCKQGYIL [MATN2]
[A] 2.48

----------
test name: protein stability index of a GFP-peptide fusion (GPS, HEK-293T) (PSI 1-6); higher = more stable
experimental context: treatment: DMSO; c terminus: a fixed tail appended
readout kind: protein stability index

{"residue string": "KAASLARNLAKRRRTYLGGAAGRS [RSPH3]", "protein stability index": 3.09}
{"residue string": "SSTTILVQWKEPEEPNGQIQGYRV [PTPRD]", "protein stability index": 2.91}
{"residue string": "RNGGSLADAISENYRIMSYFKEAE [WEE1]", "protein stability index": 3.08}
{"residue string": "RVGQLQEALNERHSIINALKAKLQ [LRRC45]", "protein stability index": 2.45}
{"residue string": "ELAFAEDLVLDEEGARAAGLGELG [ESRRA]", "protein stability index": 5.24}

[Q] Sample CKKAFREGSRKSSRVKGSAPEIDP [KMT2E] — what was its protein stability index?
[A] 4.46

[Q] Then this sequence: EQIRFVMKAHSFVRENVPRVLNSA [SOAT1]
[A] 2.58

----------
test name: protein stability index of a GFP-peptide fusion (GPS, HEK-293T) (PSI 1-6); higher = more stable
experimental context: treatment: MLN4924 1 uM, 8 h; c terminus: a fixed tail appended
Label Yes when protein stability index >= 3; otherwise No.

Some entries whose results are on file:
{"residue string": "SISDVKFSHSGRYIMTRDYLTVKV [PPP2R2B]", "class": "No"}
{"residue string": "RYRGLPAPGPSPADKKRSGKKKIS [WAS]", "class": "Yes"}
{"residue string": "EVRAKFKFSLLNAKREETKAMESQ [SPOPL]", "class": "Yes"}
{"residue string": "AAGTHDGSVYFWATPRQVPSLQHL [WSB1]", "class": "No"}
{"residue string": "DYKDRSVFGVPLTVNVQRTGQPLP [DLC1]", "class": "Yes"}

Read the next record carefully.
[Q] Does the reported protein stability index for YTDNSIRPEELLQMELLLVNKLKW [CCND1] fall at or above the 3 mark?
[A] No

----------
Below is a list of entries, each paired with its recorded protein stability index value.
test name: protein stability index of a GFP-peptide fusion (GPS, HEK-293T) (PSI 1-6); higher = more stable
experimental context: treatment: DMSO; c terminus: a fixed tail appended

Here's what some known entries look like.
{"residue string": "LKAEELLLKIHEVSTVSHADADCF [CASP6]", "protein stability index": 3.03}
{"residue string": "AQRVKEVLPHVPLGVIQRDLAKTG [AUP1]", "protein stability index": 3.81}

[Q] # input sequence: AYSGNTSNLSYHLEKNHPEEFCEF [ZBED1] ; wanted: its protein stability index
[A] 3.63

----------
test name: protein stability index of a GFP-peptide fusion (GPS, HEK-293T) (PSI 1-6); higher = more stable
experimental context: treatment: MLN4924 1 uM, 8 h; c terminus: a fixed tail appended
protein stability index reference
Give the figure only, with no unit attached.

Use the examples below as a reference point.
{"residue string": "LSTLLAPYQALRLWARGTWTQATG [SOAT2]", "value observed": 2.08}
{"residue string": "YQELNYRSVEEAPVYSVPQLLSAM [SCNN1D]", "value observed": 2.69}
{"residue string": "FVVTMLKLIQKKLLDKTCDQVMEF [ZER1]", "value observed": 3.15}
{"residue string": "GLQAPPPDDVDYATNPHVKPPYSY [FOXJ1]", "value observed": 4.46}
{"residue string": "PECTRCGHGIVGTIVKARDKLYHP [PDLIM4]", "value observed": 2.56}

Next sequence, please.
[Q] Please look up its protein stability index: RRQAVAWLVAMHKAAKLLYESRDQ [ZFYVE21]
[A] 2.36

----------
test name: protein stability index of a GFP-peptide fusion (GPS, HEK-293T) (PSI 1-6); higher = more stable
experimental context: treatment: DMSO; c terminus: a fixed tail appended
readout kind: protein stability index
Reply briefly: the number, and no unit.

Known protein stability index results, listed for orientation:
{"residue string": "SAHFTSGPLVPRLAGMANHGSPQL [TBX5]", "protein stability index": 3.35}
{"residue string": "TVGLLWFAHHSLFLHVRKATRAMG [TMEM175]", "protein stability index": 2.46}
{"residue string": "IESERALISQCGKPVVNVSYRPAY [DUSP5]", "protein stability index": 2.6}
{"residue string": "GFKRDYYLIRVDGKGSIKELFPTG [VPS39]", "protein stability index": 2.06}
{"residue string": "LSDNATAFSNRSKQLRRQMWWRGC [VAMP4]", "protein stability index": 2.54}
{"residue string": "QCSQRMLSFSDALLSIIATVMILP [TMEM175]", "protein stability index": 3.25}

[Q] // protein stability index lookup, key: NKFASFIDKVRFLEQQNQVLETKW [KRT71]
[A] 2.58

[Q] Please do the same for RDFLLDEANGLLPDDKLTLFCEVS [SPOPL] as well.
[A] 3.03

[Q] Further, for IHTGKKPHVCSLCGKAFYKKYRLT [ZNF649] ?
[A] 2.67

[Q] Please give the result for PSSPLRLGSYKAQKTSRSSSIPCS [PPEF2] too.
[A] 3.86

[Q] // query: EPMRDQVARTHLTEDTPKVNADIE [NSDHL]
[A] 5.32

[Q] Would you kindly repeat that for LSEYVSRMKETQKSIYYITGESKE [HSP90AB1] ?
[A] 3.69

[Q] Entry SRGLHAWEISWPLEQRGTHAVVGV [SPSB2] please
[A] 2.43

[Q] RWSPAQEESFRQMVVIHKEIPTGK [ZNF232] ?
[A] 3.87
